assayExplanation: NCI Yeast Anticancer Drug Screen. Data for the mec2-1 strain (AID 157)
statedConditions: S. cerevisiae mec2-1 strain, at 50.0 µM (retest, dose inferred, filed as 5.0), hits give high values
This is part of a sample that, as a whole, favours compounds with a hit. Of some 79,000 tested, about 15% had one in any assay.
experimentalReadout: growth inhibition (%)
Reply numerically in %, unit not repeated.

* O=c1oc2ccccc2c(O)c1C(c1ccco1)c1c(O)c2ccccc2oc1=O | 24

Query: Could you share which growth inhibition value was measured for O=S(=O)(O)/C(=C\c1ccccc1)c1ccccc1 (tested in a mixture with another compound) ?
Reply: 24

Query: Could you share which growth inhibition value was measured for "Cc1cc(N(CCCl)CCCl)ccc1C=Nc1ccc(-c2csc(COc3ccccc3)n2)c(Cl)c1" ?
Reply: 90

Query: Could you share which growth inhibition value was measured for "O=[N+]([O-])c1cc(C(F)(F)F)cc2n[se]nc12" ?
Reply: 99

Query: Could you share which growth inhibition value was measured for "N#CC(C#N)=Cc1ccc([N+](=O)[O-])s1" ?
Reply: 99

Query: Could you share which growth inhibition value was measured for C=C(CC(=O)O)C(=O)O (tested in a mixture with another compound) ?
Reply: 0

Query: Could you share which growth inhibition value was measured for "c1ccc2c(NCCCCCCNc3c4ccccc4nc4ccccc34)c3ccccc3nc2c1" ?
Reply: 80

* * *

assayExplanation: NCI Yeast Anticancer Drug Screen. Data for the mec2-1 strain (AID 157)
statedConditions: S. cerevisiae mec2-1 strain, at 50.0 µM
Experimental: Growth inhibition of yeast strains with defined genetic alterations is measured as a screen for potential anti-cancer activity. Selected strains with alterations in DNA damage repair or cell cycle control were exposed to compounds and growth inhibition was measured relative to vehicle treated controls. The strain used in this assay is mec2-1
The panel holds about 79,000 compounds, 15% with a hit somewhere; the sample as a whole holds those more often. Calls of active or inactive are those of the source. No stated cut-off is given here; in the data, active means growth inhibition above about 70%; inactive means the rest.
# valid calls are active, inactive; nothing else

* O=[N+]([O-])c1oc2ccc3ccccc3c2c1CCO | active
* C[N+](C)=C1C=CC(=C2C=CSC=C2)C=C1 | inactive
* O=[N+]([O-])/C=C/c1cc2c(cc1Br)OCO2 | active
* O=C(COc1ccc(Cl)c(Cl)c1)N(Cc1ccccc1)Cc1ccc[n+](Cc2ccc(S(=O)(=O)F)cc2)c1 | inactive
* CC(=O)[O][Hg][c]1c(C)c(C)c(C)c(C)c1C | active

Query: For this compound, state the assay outcome: "O=C(CCN1CC1)NCCc1ccccc1"
Reply: active

* * *

assayExplanation: NCI Yeast Anticancer Drug Screen. Data for the mlh1 strain (AID 171);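 note: 0% = growth of vehicle-treated control cultures of the same strain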
statedConditions: S. cerevisiae mlh1 strain growth inhibition; at 100.0 µM
About 79,000 compounds went through this panel and 15% of them were active in at least one assay; those are over-represented in the sample as a whole. The source made the active and inactive calls. No stated cut-off is given here; in the data, active means growth inhibition above about 70%; inactive means the rest.
# valid calls are active, inactive; nothing else

• C[C@@]12CCC(=O)C=C1CC[C@H]1C2=CC[C@]2(C)C1CC[C@@]2(C)O (some centres undefined) = active
• Nc1nc(N)c2c(Cl)c(CNc3ccc(C(=O)NC(CC(=O)O)C(=O)O)cc3)ccc2n1 (centres undefined) = inactive

Query: For this compound, state the assay outcome: "C[CH2][Sn]([CH2]C)([O]S(C)(=O)=O)[O]S(C)(=O)=O"
Reply: inactive

Query: For this compound, state the assay outcome: "COc1cc(O)c2c(O)c3c(c4c2c1[C@]1(C4)C(C)=CCCC1(C)C)[C@H](O)[C@@]1(O)CC(=O)C(C(N)=O)=C(O)[C@@]1(O)C3=O"
Reply: active

* * *

assayExplanation: NCI Yeast Anticancer Drug Screen. Data for the CLN2oe strain (AID 163);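 note: 0% = growth of vehicle-only control cultures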
statedConditions: S. cerevisiae CLN2oe strain, at 1.2 µM, hits give high values
Compounds without any hit were thinned out: in the full panel of roughly 79,000, 15% have a hit.
experimentalReadout: growth inhibition (%)
Reply numerically in %, unit not repeated.

# example entries with known answers
* C/C(CCl)=N/NC1=NC(c2ccccc2Cl)P(=O)(NCCCNP2(=O)SC(N/N=C(/C)CCl)=NC2c2ccccc2Cl)S1 (stereo not drawn) | -13
* OC1CCCC2CCC[N-]C12.OC1CCCC2CCC[N-]C12.[O]=[V][OH] (stereo not drawn) | -12
* COc1cccc2c1C(=O)c1c(O)c3c(c(O)c1C2=O)C[C@@](O)(C(C)=O)C[C@@H]3OC1CC(N)C(OC2CC(O)C(O)C(C)O2)C(C)O1 (stereo partly drawn) | -14
* O=C1NC(=S)NC(=O)C1=Cc1ccc([N+](=O)[O-])o1 | 9
* CCOC(=O)C1([Se]c2ccccc2)CCCC1=O (stereo not drawn) | 2
* Cc1c(N)nc([C@H](CC(N)=O)NC[C@H](N)C(N)=O)nc1C(=O)N[C@H](C(=O)N[C@H](C)[C@@H](O)[C@H](C)C(=O)N[C@H](C(=O)NCCc1nc(-c2nc(C(=O)NCCC[S+](C)C)cs2)cs1)[C@@H](C)O)C(OC1OC(CO)C(O)C(O)C1OC1OC(CO)C(O)C(OC(N)=O)C1O)c1cnc[nH]1 (stereo partly drawn) | 2
* O=C(/C=C(\c1ccccc1)N1CC1)c1ccccc1 | 4

As a next step, examine the compound that follows.
Query: Could you share which growth inhibition value was measured for "CC1=C(N2CC2)C(=O)c2ccccc2C1=O" ?
Reply: -1

* * *

assayExplanation: NCI Yeast Anticancer Drug Screen. Data for the sgs1 mgt1 strain (AID 161);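 note: 0% = growth of cultures given vehicle only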
statedConditions: S. cerevisiae sgs1 mgt1 strain, at 50.0 µM, hits give high values
Compounds without any hit were thinned out: in the full panel of roughly 79,000, 15% have a hit.
Label rule, in plain words: growth inhibition of 90% and up is met, under 90% is not met.

The following molecules have reported results that may help.
• CC[C@@]1(O)C(=O)OCc2c1cc1n(c2=O)Cc2cc3ccccc3nc2-1 = not met
• CC(=O)OCC12CCC(C)=CC1OC1C3(O)N=C(C)OC3C2(C)C12CO2 (stereo unspecified) = not met
• CC(C)=[CH][Sb]([Br])([CH]=C(C)C)([CH]=C(C)C)[c]1ccccc1 = not met
• CCC[CH2][Sn]1([CH2]CCC)[O]CC[S]1 = met
• [Cl][Hg].c1ccc([As]c2ccc(-c3ccccc3)cc2)cc1 (stereo unspecified) = met
• NC(=O)c1ccc(N)nc1 = not met

Query: Hi, just wondering whether Cc1cn(CC2C=CC(CS[As](C)C)O2)c(=O)[nH]c1=O (stereo unspecified) shows growth inhibition of 90% or higher.
Reply: met

Query: Hi, just wondering whether "COc1cc(/C=C/c2ccc(OC)c(OC)c2)cc(OC)c1" shows growth inhibition of 90% or higher.
Reply: not met

* * *

assayExplanation: NCI Yeast Anticancer Drug Screen. Data for the bub3 strain (AID 167)
statedConditions: S. cerevisiae bub3 mutant strain, at 5.0 µM (retest, dose inferred, filed as 0.5)
Compounds without any hit were thinned out: in the full panel of roughly 79,000, 15% have a hit. Active and inactive are the calls of the source. Cut-off read from the data, not from the text of the source: active = growth inhibition above about 70%; inactive = the rest.
# valid calls are active, inactive; nothing else

- CSC(=Nc1ccccc1)N(c1ccccc1)c1nc(=[N+](C)C)ss1: inactive
- CCCCCCCCCCCCNCCc1ccccc1: active

Query: For this molecule, state the assay outcome: "CC#C[P+](c1ccccc1)(c1ccccc1)c1ccccc1"
Reply: active

Query: For this molecule, state the assay outcome: CC1=CCC2(C)C3CCC4(C)C(O)CCC4C3CCC2(C)C1 (stereo not given)
Reply: inactive

Query: For this molecule, state the assay outcome: CCC1(O)C(=O)OCc2c1cc1n(c2=O)Cc2cc3cc([N+](=O)[O-])ccc3nc2-1 (stereo not given)
Reply: inactive

Query: For this molecule, state the assay outcome: CCCCC(CC)CNP(=S)(NCC(CC)CCCC)NCC(CC)CCCC (stereo not given)
Reply: inactive

Query: For this molecule, state the assay outcome: COC(=O)C(CCCN=C(N)N[N+](=O)[O-])NC(=O)c1ccc2c(c1O)C(=O)c1ccccc1C2=O (stereo not given)
Reply: inactive

Query: For this molecule, state the assay outcome: "[Cl][Sn]1([c]2ccccc2)[O]CCNCC[O]1"
Reply: inactive

Query: For this molecule, state the assay outcome: COC1C(C)OC(OC2CC(C)(O)Cc3cc4c(c(O)c32)C(=O)c2c(O)cc3c(c2C4=O)OC2OC3(C)C(O)C(N(C)C)C2O)C(OC)C1(C)OC (stereo not given)
Reply: active

Query: For this molecule, state the assay outcome: COC1NC(=O)NC(=O)C1=[N+]=[N-] (stereo not given)
Reply: inactive

* * *

assayExplanation: NCI Yeast Anticancer Drug Screen. Data for the cln2 rad14 strain (AID 165);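 note: 0% = growth equal to vehicle treated cultures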
statedConditions: S. cerevisiae cln2 rad14 strain, at 5.0 µM (retest, dose inferred, filed as 0.5), hits give high values
The panel holds about 79,000 compounds, 15% with a hit somewhere; the sample as a whole holds those more often.
experimentalReadout: growth inhibition (%)
Reply numerically in %, unit not repeated.

Query: Could you share which growth inhibition value was measured for NN1CCCC1C(=O)O (configuration not stated) ?
Reply: 3

Query: Could you share which growth inhibition value was measured for CCC1(OC(=O)CN)C(=O)OCc2c1cc1n(c2=O)Cc2cc3ccccc3nc2-1 (configuration not stated) ?
Reply: 49

Query: Could you share which growth inhibition value was measured for OC1CCCC2CCC[N-]C12.OC1CCCC2CCC[N-]C12.[O]=[V][OH] (configuration not stated) ?
Reply: 46

Query: Could you share which growth inhibition value was measured for "C[C@]12CC[C@H]3[C@@H](CCC4=CC(=O)CC[C@@H]43)[C@@H]1CC[C@@H]2OC1(O)C(=O)c2ccccc2C1=O" ?
Reply: -16

Query: Could you share which growth inhibition value was measured for C[C@]12CCC3[C@@H](CC[C@@H]4c5nonc5CC[C@]34C)C1CCC2=O (some centres not stated) ?
Reply: 39

Query: Could you share which growth inhibition value was measured for "CC1(C)CC(=O)C([Se]C2=C(O)CC(C)(C)CC2=O)=C(O)C1" ?
Reply: 35
